Measured IC50 values are reported for all entries that follow.
SYSTEM_TESTED: AKT1-E17K (Homo sapiens, UniProt P31749, E17K)
Sequence (P31749 whole entry E17K): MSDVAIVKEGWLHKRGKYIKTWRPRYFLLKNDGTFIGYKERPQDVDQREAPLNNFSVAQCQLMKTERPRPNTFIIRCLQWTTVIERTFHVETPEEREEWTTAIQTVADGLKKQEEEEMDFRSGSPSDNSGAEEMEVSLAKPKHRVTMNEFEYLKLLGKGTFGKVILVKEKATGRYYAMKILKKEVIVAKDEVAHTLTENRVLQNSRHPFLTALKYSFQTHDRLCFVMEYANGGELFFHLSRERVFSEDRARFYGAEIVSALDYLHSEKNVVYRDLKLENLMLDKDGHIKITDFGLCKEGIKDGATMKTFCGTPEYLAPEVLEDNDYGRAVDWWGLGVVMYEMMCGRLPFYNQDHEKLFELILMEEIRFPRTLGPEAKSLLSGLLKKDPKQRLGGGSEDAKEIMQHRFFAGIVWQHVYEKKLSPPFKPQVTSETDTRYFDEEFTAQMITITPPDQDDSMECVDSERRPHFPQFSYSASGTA
RUN_DESCRIPTION: NanoBRET Target Engagement (TE) Assay

# COMPOUND, SYSTEM_TESTED, ENDPOINT_NAME, ASSAY_VALUE
rows = [
    ("Nc1ncccc1-c1nc2ccc(-c3ccccc3)nc2n1-c1ccc(CN2CCC(Oc3cccc(O)c3C=O)CC2)cc1 [Example 128]", "AKT1-E17K (Homo sapiens, UniProt P31749, E17K)", "IC50", "0.06 to 0.6 µM"),
    ("Nc1ncccc1-c1nc2ccc(-c3cccc(Cl)c3)nc2n1-c1ccc(CN2CCN(C(=O)c3ccc(C=O)c(O)c3)CC2)cc1 [Example 43]", "AKT1-E17K (Homo sapiens, UniProt P31749, E17K)", "IC50", "0.06 to 0.6 µM"),
    ("N#Cc1cccc(-c2ccc3nc(-c4cccnc4N)n(-c4ccc(CN5CCN(C(=O)c6ccc(O)c(C=O)c6)CC5)cc4)c3n2)c1 [Example 34]", "AKT1-E17K (Homo sapiens, UniProt P31749, E17K)", "IC50", "0.06 to 0.6 µM"),
    ("Nc1ncccc1-c1nc2ccc(-c3ccccc3)nc2n1-c1ccc(CN2CCC3(CCN(C(=O)c4ccc(C=O)c(O)c4)C3)C2)cc1 (stereo not shown) [Example 81]", "AKT1-E17K (Homo sapiens, UniProt P31749, E17K)", "IC50", "0.06 to 0.6 µM"),
    ("Nc1ncccc1-c1nc2ccc(-c3ccccc3)nc2n1-c1ccc(CN2CCC(Nc3cccc(C=O)c3O)CC2)cc1 [Example 50]", "AKT1-E17K (Homo sapiens, UniProt P31749, E17K)", "IC50", "0.015 to 0.06 µM"),
]

// switching to the query compound
Problem: Entry C[C@H]1CN(Cc2ccc(-n3c(-c4cccnc4N)nc4ccc(-c5ccccc5)nc43)cc2)CCN1C(=O)c1ccc(C=O)c(O)c1 [Example 106] has what IC50?
Result: > 0.6 µM
